target: T1, Suc-AAPE-pNA
T1 chain: AAPE
reported_property: Glutamyl endopeptidase ratio (GR)
Enter the number alone.

QUERY: Request the reported Glutamyl endopeptidase ratio (GR) associated with Serine protease bppB from Bacillus pumilus JA16 (protein) VVIGDDGRTKVTNTRVAPYNSIAYITFGGSSCTGTLIAPNKILTNGHCVYNTATRSYSAKGSVYPGMNDSTAVNGSANMTEFYVPSGYINTGASQYDFAVIKTDTNIGNTVGYRSIRQVTNLTGTTIKISGYPGDKMRSTGKVSQWEMSGPVTREDTNLAYYTIDTFSGNSGSAMLDQNQQIVGVHNAGYSNGTINGGPKATAAFVEFINYAKAQ
RESULT: 234

QUERY: // returns reported Glutamyl endopeptidase ratio (GR) for input Glutamyl endopeptidase II sprE from Streptomyces griseus (protein) VLGGGAIYGGGSRCSAAFNVTKGGARYFVTAGHCTNISANWSASSGGSVVGVREGTSFPTNDYGIVRYTDGSSPAGTVDLYNGSTQDISSAANAVVGQAIKKSGSTTKVTSGTVTAVNVTVNYGDGPVYNMVRTTACSAGGDSGGAHFAGSVALGIHSGSSGCSGTAGSAIHQPVTEALSAYGVTVY
RESULT: 6
